Target: T1, VPAC2 receptor (UniProt P41587 24-438, limits assumed)
T1 sequence (looked up): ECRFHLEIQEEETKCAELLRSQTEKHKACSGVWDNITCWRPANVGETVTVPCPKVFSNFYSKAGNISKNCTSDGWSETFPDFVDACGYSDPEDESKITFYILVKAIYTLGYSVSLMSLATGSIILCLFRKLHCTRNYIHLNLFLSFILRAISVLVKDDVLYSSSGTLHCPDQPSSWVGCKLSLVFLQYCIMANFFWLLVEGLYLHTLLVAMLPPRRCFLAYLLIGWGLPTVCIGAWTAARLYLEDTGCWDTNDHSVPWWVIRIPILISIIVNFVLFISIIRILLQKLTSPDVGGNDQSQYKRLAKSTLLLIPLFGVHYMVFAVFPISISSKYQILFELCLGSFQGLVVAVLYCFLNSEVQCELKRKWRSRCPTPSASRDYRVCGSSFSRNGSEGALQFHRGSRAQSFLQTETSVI
Assay: cell-based or functional assay
Where no end group is shown, it is not given here. [ ]: non-standard residue; d: D form. APC = 3-aminopyrrolidine-4-carboxylic acid; ACPC = 2-aminocyclopentanecarboxylic acid; β3hL = CC(C)C[C@H](N)CC(=O)O; β3hK = NCCCC[C@H](N)CC(=O)O; βAla = NCCC(=O)O
EC50 vpac2 (Molar), cell-based cAMP assay by entry:
PROPERTY_LABEL: EC50 vpac2 (Molar), cell-based cAMP assay (nM)

BINDER: Ac-H[ACPC]DAVFTENYTKLRKQLAA[APC]KY[ACPC]NDL[β3hK]KG[βAla]T (not fully specified (C-terminus); printed as Ac-HxDAVFTENYTKLRKQLAAzKYxNDLkKGgT) [LBT-V207]
OBSERVED_MEASUREMENT: 0.593

BINDER: Ac-HSDAVFTENYTKLRKQLA[ACPC]KKY[ACPC]ND[β3hL]KKG[βAla]T (not fully specified (C-terminus); printed as Ac-HSDAVFTENYTKLRKQLAxKKYxNDlKKGgT) [LBT-V201]
OBSERVED_MEASUREMENT: 104

src = patent US20180193423A1
